Data provenance is patent US20210395210A1.

Kindly supply the reported pIC50 values for the records listed here.
# Target of assay: human HSP60/10 (Homo sapiens)
# Construct: octa-Histidine tag (TEV-cleavable) (N, cleaved yes); made in house; host or cells: HSP60 in E. coli Rosetta 2 (DE3); HSP10 in Rosetta 2 (DE3) pLysS
# Sequence (P10809 27-573): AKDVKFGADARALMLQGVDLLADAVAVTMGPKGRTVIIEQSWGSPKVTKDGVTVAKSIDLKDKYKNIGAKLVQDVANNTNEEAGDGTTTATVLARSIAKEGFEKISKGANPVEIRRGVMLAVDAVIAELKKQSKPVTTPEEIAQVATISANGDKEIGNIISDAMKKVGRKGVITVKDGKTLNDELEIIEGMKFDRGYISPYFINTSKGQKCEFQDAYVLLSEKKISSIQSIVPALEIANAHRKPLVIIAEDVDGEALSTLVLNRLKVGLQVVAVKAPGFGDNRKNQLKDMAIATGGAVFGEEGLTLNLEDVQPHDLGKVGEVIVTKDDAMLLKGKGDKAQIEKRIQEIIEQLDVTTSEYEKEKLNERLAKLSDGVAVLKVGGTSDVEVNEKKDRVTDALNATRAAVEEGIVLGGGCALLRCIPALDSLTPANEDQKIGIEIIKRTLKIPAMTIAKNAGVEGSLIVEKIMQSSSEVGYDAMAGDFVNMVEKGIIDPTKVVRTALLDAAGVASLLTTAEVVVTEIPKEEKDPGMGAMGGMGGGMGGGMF
# Assay details: HSP60/10-mediated dMDH refolding assay
# Type: biochemical
# Protocol conditions: human HSP60/10-dMDH refolding assay; read-out: HSP60/10-dMDH Refolding IC50
pIC50: −log10 of the molar value.

Request: Item under review: O=C(Nc1cccc(Cl)c1)c1cccc(Br)c1O [Compound 10] . Reported pIC50?
Result: < 4.00

Request: Field request: pIC50 | item: COc1ccccc1C(=O)Nc1ccccc1 [Compound 44, 2-Methoxy-N-phenylbenzamide]
Result: < 4.00

Request: Give the measured pIC50 of CC1(C)S[C@@H]2[C@H](NC(=O)[C@H](N)c3ccccc3)C(=O)N2[C@H]1C(=O)O [Ampicillin, ampicillin, reference compound] .
Result: < 4.00

Request: So what does the record say about pIC50 for O=C(Nc1cccc(Cl)c1)c1cc(Br)cc(Br)c1O [Compound 9] ?
Result: 4.54

Request: Entry O=C(Nc1ccc(Sc2nc3ccccc3s2)cc1)c1ccccc1O [Compound 8] has what pIC50?
Result: < 4.00

Request: For the compound COc1ccc(Br)cc1C(=O)Nc1ccccc1 [Compound 43, 5-Bromo-2-methoxy-N-phenylbenzamide] , what pIC50 is on record?
Result: < 4.00

Request: # get_value(readout='pIC50', item= COc1c(Br)cccc1C(=O)Nc1cccc(Cl)c1 [Compound 38] )
Result: < 4.00

Request: Reported pIC50 for O=C(Nc1ccc(Sc2nc3ccccc3s2)cc1)c1cc(Br)ccc1O [Compound 7] : what is it?
Result: < 4.00

Request: Entry under review: O=C(Nc1ccc(Sc2nc3ccccc3s2)cc1)c1cc(Br)cc(Br)c1 [Compound 20] . Reported pIC50?
Result: < 4.00
